molecular target: Human immunodeficiency virus type 1 reverse transcriptase (Human immunodeficiency virus 1, UniProt Q72547); test: Inhibition of HIV1 recombinant reverse transcriptase expressed in Escherichia coli using poly(rU)-oligo(dA) template
pEC50: −log10 of the molar value.
recordedMetric: pEC50

In plain terms, C[C@@H]1[C@@]23CC[C@H]4[C@@](C)(CC[C@@]5(C)[C@@H]6C[C@](C)(C(=O)O)CC[C@]6(C)CC[C@]45C)[C@@H]2CC[C@@]1(O)OC3 [SALASPERMIC ACID] has a documented pEC50 of < 3.67

----------
biological target: Human immunodeficiency virus type 1 reverse transcriptase (Human immunodeficiency virus 1); assay: Inhibition of HIV1 recombinant reverse transcriptase expressed in Escherichia coli using poly(rA)-oligo(dT) template
recordedMetric: pEC50
Answer as the number alone; pEC50 is minus log10 of concentration in mol/L.

In plain terms, C[C@@H]1[C@@]23CC[C@H]4[C@@](C)(CC[C@@]5(C)[C@@H]6C[C@](C)(C(=O)O)CC[C@]6(C)CC[C@]45C)[C@@H]2CC[C@@]1(O)OC3 has a documented pEC50 of 4.47
